# Tested on: NCI-H520
# experiment: relative viability (nuclei count vs DMSO), 5 days (fraction); higher = more cells survive
# study_conditions: first compound 0.006325 µM
Assignment: determine reported relative viability for the given molecules.
Could you respond with only the numeric value?

Q: Look at this molecule and give its reported relative viability. CC(=O)O[C@@]12CO[C@@H]1C[C@H](O)[C@@]1(C)C(=O)[C@H](O)C3=C(C)[C@@H](OC(=O)[C@H](O)[C@@H](NC(=O)OC(C)(C)C)c4ccccc4)C[C@@](O)([C@@H](OC(=O)c4ccccc4)[C@H]21)C3(C)C [Docetaxel] + Nc1ncn([C@H]2C[C@H](O)[C@@H](CO)O2)c(=O)n1 [Decitabine] (partner 2 µM)
Result: 0.249

Q: Look at this molecule and give its reported relative viability. CC(=O)O[C@@]12CO[C@@H]1C[C@H](O)[C@@]1(C)C(=O)[C@H](O)C3=C(C)[C@@H](OC(=O)[C@H](O)[C@@H](NC(=O)OC(C)(C)C)c4ccccc4)C[C@@](O)([C@@H](OC(=O)c4ccccc4)[C@H]21)C3(C)C [Docetaxel] + CC(C)C[C@H](NC(=O)[C@H](Cc1ccccc1)NC(=O)c1cnccn1)B(O)O [Bortezomib] (partner 0.002 µM)
Result: 0.172

Q: Look at this molecule and give its reported relative viability. CC(=O)O[C@@]12CO[C@@H]1C[C@H](O)[C@@]1(C)C(=O)[C@H](O)C3=C(C)[C@@H](OC(=O)[C@H](O)[C@@H](NC(=O)OC(C)(C)C)c4ccccc4)C[C@@](O)([C@@H](OC(=O)c4ccccc4)[C@H]21)C3(C)C [Docetaxel] + CCNC(=O)c1noc(-c2cc(C(C)C)c(O)cc2O)c1-c1ccc(CN2CCOCC2)cc1 [Luminespib] (partner 0.01 µM)
Result: 0.259

Q: Look at this molecule and give its reported relative viability. CC(=O)O[C@@]12CO[C@@H]1C[C@H](O)[C@@]1(C)C(=O)[C@H](O)C3=C(C)[C@@H](OC(=O)[C@H](O)[C@@H](NC(=O)OC(C)(C)C)c4ccccc4)C[C@@](O)([C@@H](OC(=O)c4ccccc4)[C@H]21)C3(C)C [Docetaxel] + CC(=O)c1c(C)c2cnc(Nc3ccc(N4CCNCC4)cn3)nc2n(C2CCCC2)c1=O [Palbociclib] (partner 0.5 µM)
Result: 0.189

Q: Look at this molecule and give its reported relative viability. CC(=O)O[C@@]12CO[C@@H]1C[C@H](O)[C@@]1(C)C(=O)[C@H](O)C3=C(C)[C@@H](OC(=O)[C@H](O)[C@@H](NC(=O)OC(C)(C)C)c4ccccc4)C[C@@](O)([C@@H](OC(=O)c4ccccc4)[C@H]21)C3(C)C [Docetaxel] + Cc1nc(NC(=O)N2CCC[C@H]2C(N)=O)sc1-c1ccnc(C(C)(C)C(F)(F)F)c1 [Alpelisib] (partner 2 µM)
Result: 0.152

Q: Look at this molecule and give its reported relative viability. CC(=O)O[C@@]12CO[C@@H]1C[C@H](O)[C@@]1(C)C(=O)[C@H](O)C3=C(C)[C@@H](OC(=O)[C@H](O)[C@@H](NC(=O)OC(C)(C)C)c4ccccc4)C[C@@](O)([C@@H](OC(=O)c4ccccc4)[C@H]21)C3(C)C [Docetaxel] + O=C(CCCCCCC(=O)Nc1ccccc1)NO [Vorinostat] (partner 1 µM)
Result: 0.187

// provenance: the supplement of paper PMC10307832
